read-out: ABC Transporter (ABCB11), ABCB11 (gene 8647); test: LTEA_HepaRG_ABCB11: Life Technologies and Expression Analysis (LTEA) Assay for ABC Transporter (ABCB11) using HepaRG (AID 2283463); conditions: mRNA level, 48 h; actives raise or lower the signal
The source made the active and inactive calls. How the source made its calls: active means hit-call score of the fitted dose curve at least 0.9, where 1 is the maximum; inactive means score below 0.9.
Return exactly one item of true = active, false = inactive

input: Given `CCCCNC(=O)n1c(NC(=O)OC)nc2ccccc21` , state the outcome it received in this test.
output: false

input: Dear colleague, could you share the recorded outcome for `CC(C)(C)c1ccc(CSc2cnn(C(C)(C)C)c(=O)c2Cl)cc1` when you have a moment?
output: true

input: Please let me know the test result on file for CC(C)C1(C)N=C(c2nc3ccccc3cc2C(=O)O)NC1=O (stereo unspecified) .
output: false

input: Just curious, what result did `Cc1cc(Cl)ccc1OCC(=O)O` get here?
output: true

input: What is the recorded call for this compound in the test? `COc1nc(NC(C)C)nc(NC(C)C)n1`
output: false

input: Test call for this compound, please: CC1COC(Cn2cncn2)(c2ccc(Oc3ccc(Cl)cc3)cc2Cl)O1 (stereo unspecified)
output: true

* * *

Assay: Tanguay_ZF_120hpf_YSE_legacy: (Legacy) Oregon State University Tanguay Lab 120 Hour Post-fertilization zebrafish Assay for Yolk Sac Edema (AID 2283634)
Method: Tanguay_ZF_120hpf_legacy is a whole embryo, multiplexed endpoint assay using zebrafish larvae exposed for 120 hours post fertilization on a 96-well plate.Tanguay_ZF_120hpf_YSE_legacy is one of one assay component(s) measured or calculated from the Tanguay_ZF_120hpf_legacy assay. […] This assay endpoint, Tanguay_ZF_120hpf_YSE_legacy, was analyzed in the positive analysis fitting direction relative to DMSO as the negative control and baseline of activity. […]
Records with an inconclusive call do not appear. Active and inactive are the calls of the source. How the source made its calls: active means hit-call score of the fitted dose curve at least 0.9, where 1 is the maximum; inconclusive means response in the unintended direction; inactive means score below 0.9.
Permitted responses: 1.0 for active, 0.0 for inactive

input: Status in this test for CC(Oc1ccc(Cl)cc1Cl)C(=O)O (stereo not drawn) ?
output: 0.0

input: State the result this test recorded for CC1COC(Cn2cncn2)(c2ccc(Oc3ccc(Cl)cc3)cc2Cl)O1 (stereo not drawn) .
output: 1.0

input: Hi, do you know how `Cc1ccc(-c2c(Cl)nc(C#N)n2S(=O)(=O)N(C)C)cc1` came out in this test?
output: 0.0

input: Please share the test call associated with `COc1nc(NC(C)C)nc(NC(C)C)n1` .
output: 0.0

input: Query: recorded result category for `C=CCC1=C(C)[C@@H](OC(=O)[C@@H]2[C@@H](C=C(C)C)C2(C)C)CC1=O` in this test
output: 0.0

input: Hi, sorry to bother you, what did the test record for `CON(C)C(=O)Nc1ccc(Cl)c(Cl)c1` ?
output: 0.0

input: Given COP(N)(=O)SC (stereo not drawn) , state the outcome it received in this test.
output: 0.0

input: In this assay, the call recorded for `CC(C)(C)c1ccc(CSc2cnn(C(C)(C)C)c(=O)c2Cl)cc1` was what?
output: 0.0

input: # fetch the recorded call for N#CC(CCc1ccc(Cl)cc1)(Cn1cncn1)c1ccccc1 (stereo not drawn) here
output: 0.0

input: Call for entry `CCCN(CCC)c1c([N+](=O)[O-])cc(S(N)(=O)=O)cc1[N+](=O)[O-]` :
output: 0.0

input: So what was the verdict on `N#Cc1cc(Br)c(O)c(Br)c1` in this test?
output: 0.0

input: Hi, sorry to bother you, what did the test record for `Oc1ccccc1-c1ccccc1` ?
output: 0.0

input: What outcome does the record of this test show for `COc1ccc(C(c2ccc(OC)cc2)C(Cl)(Cl)Cl)cc1` ?
output: 0.0

input: Which outcome did this test record for the molecule `O=C(O)COc1nc(Cl)c(Cl)cc1Cl` ?
output: 0.0

input: What classification did C=CC1(C)OC(=O)N(c2cc(Cl)cc(Cl)c2)C1=O (stereo not drawn) end up with in this test?
output: 0.0

input: I would be grateful if you could indicate the recorded call for OC(c1ccc(Cl)cc1)(c1cncnc1)c1ccccc1Cl (stereo not drawn) .
output: 0.0

input: Returns: the outcome recorded for `CCOc1cc(Oc2ccc(C(F)(F)F)cc2Cl)ccc1[N+](=O)[O-]` in this assay.
output: 0.0

input: Recorded test call requested for C=CCC1=C(C)C(OC(=O)C2C(C=C(C)C)C2(C)C)CC1=O (stereo not drawn)
output: 0.0

input: For this molecule, state the assay outcome: `O=C(Nc1ccccc1)Nc1ccnc(Cl)c1`
output: 0.0

input: For this molecule, state the assay outcome: N#Cc1nn(-c2c(Cl)cc(C(F)(F)F)cc2Cl)c(N)c1S(=O)C(F)(F)F (stereo not drawn)
output: 1.0

input: Could you please tell me the result logged for Cc1c(F)c(F)c(COC(=O)C2C(/C=C(\Cl)C(F)(F)F)C2(C)C)c(F)c1F (stereo not drawn) in this assay?
output: 1.0

input: Recorded call for CCCC1COC(Cn2cncn2)(c2ccc(Cl)cc2Cl)O1 (stereo not drawn) ?
output: 1.0

input: Recorded test outcome, item `CS/C(C)=N/OC(=O)N(C)SN(C)C(=O)O/N=C(\C)SC`
output: 0.0

input: Per the records of this test, what outcome belongs to `CC1=C(C(=O)Nc2ccccc2)SCCO1` ?
output: 0.0

input: Outcome? CC(C)C1(C)N=C(c2nc3ccccc3cc2C(=O)O)NC1=O (stereo not drawn)
output: 0.0

input: Answer briefly: the call reported for `CN(C)C(=S)SSC(=S)N(C)C` in this assay.
output: 0.0

input: Tell me the recorded outcome of this test for `COC(=O)C=C(C)OP(=O)(OC)OC` .
output: 0.0

input: Record request — test call for `CCNc1nc(Cl)nc(NC(C)C)n1`
output: 0.0

input: # lookup: test call for `CNC(=S)S`
output: 0.0

input: Returns: the outcome recorded for `CCCCNC(=O)OCC#CI` in this assay.
output: 0.0

input: What outcome does the record of this test show for `CCOP(=S)(OCC)SCn1c(=O)oc2cc(Cl)ccc21` ?
output: 0.0

input: Check the results log: what was the call for `CNC(=O)ON=CC(C)(C)SC` ?
output: 1.0

input: Give the logged outcome of this assay for the following molecule: `Fc1ccc(Oc2ccnc3cc(Cl)cc(Cl)c23)cc1`
output: 0.0
